assay: qHTS assay for cell viability of HEK293 cells (AID 743288); settings: ATP luminescence (CellTiter-Glo), 18 h; active compounds read low; further: on the % scale 0 is the no-effect control and ±100 the full control effect; nearly all actives have a fitted effect of over 50% in size
Records with an inconclusive call do not appear.

Compound: Cc1cn([C@H]2C[C@H](N=[N+]=[N-])[C@@H](CO)O2)c(=O)[nH]c1=O
max response (%): -21.7
--
Compound: CC(C)(Oc1ccc(C2CC2(Cl)Cl)cc1)C(=O)O (stereo unspecified)
max response (%): -8.57
--
Compound: O=C(CCCN1CCC(O)(c2ccc(Cl)cc2)CC1)c1ccc(F)cc1
max response (%): -20.6
--
Compound: Cn1c(=O)c2[nH]cnc2n(C)c1=O
max response (%): 2.06
--
Compound: COc1ccc(CCN(C)CCCC(C#N)(c2ccc(OC)c(OC)c2)C(C)C)cc1OC (stereo unspecified)
max response (%): 0.749
--
Compound: NCCS(=O)(=O)O
max response (%): 10.5
--
Compound: C[C@](N)(Cc1ccc(O)c(O)c1)C(=O)O
max response (%): -5.13
--
Compound: CCOC(=O)C(C)(C)Oc1ccc(Cl)cc1
max response (%): -5.02
--
Compound: Cn1cnc2c1c(=O)[nH]c(=O)n2C
max response (%): -4
--
Compound: CC(C)Cc1ccc(C(C)C(=O)O)cc1 (stereo unspecified)
max response (%): -10
--
Compound: O=c1[nH]cc(F)c(=O)[nH]1
max response (%): -0.211

====

assay: Cytometry Cell-Based qHTS for Inhibitors of the mTORC1 Signaling Pathway in MEF cells (AID 2668); conditions: mTORC1 pathway readout; series mostly up to 38.3 µM
Results filed as inconclusive are left out. Calls of active or inactive are those of the source. Calls come from the whole dose curve; as a rule, active = well fitted inhibition curve with a large enough effect; inconclusive = small, poorly fitted or top-dose-only effect; inactive = flat fitted curve, though single readings scatter.
Outcomes: label 1 for active, label 0 for inactive

Molecule: Cc1cn([C@H]2C[C@H](N=[N+]=[N-])[C@@H](CO)O2)c(=O)[nH]c1=O
Label Value: label 0

Molecule: CC(CCc1ccc(O)cc1)NCCc1ccc(O)c(O)c1 (centres undefined)
Label Value: label 0

Molecule: CC[N+](CC)(CC)CCOc1cccc(OCC[N+](CC)(CC)CC)c1OCC[N+](CC)(CC)CC
Label Value: label 0

Molecule: COc1nc(C)nc(Cl)c1NC1=NCCN1
Label Value: label 0

Molecule: NC(=O)NO
Label Value: label 0

Molecule: CN1CCC(=C2c3ccccc3CC(=O)c3sccc32)CC1
Label Value: label 0

Molecule: O=c1c(-c2ccc(O)cc2)coc2cc(O)cc(O)c12
Label Value: label 0

Molecule: COc1ccc(C2CNC(=O)C2)cc1OC1CCCC1 (centres undefined)
Label Value: label 0

Molecule: CCc1cccc2c3c([nH]c12)C(CC)(CC(=O)O)OCC3 (centres undefined)
Label Value: label 0

Molecule: CC(C)NCC(O)COc1ccc(CCOCC2CC2)cc1 (centres undefined)
Label Value: label 0

Molecule: CCC1(C)CC(=O)NC1=O (centres undefined)
Label Value: label 0

Molecule: CC(C)(Oc1ccc(C2CC2(Cl)Cl)cc1)C(=O)O (centres undefined)
Label Value: label 0

Molecule: Cc1cc(C(C)(C)C)c(O)c(C)c1CC1=NCCN1
Label Value: label 0

Molecule: Clc1ccc(C(c2ccccc2Cl)C(Cl)Cl)cc1 (centres undefined)
Label Value: label 0

Molecule: CC(C)NCC(O)c1ccc(O)c(O)c1 (centres undefined)
Label Value: label 1

Molecule: Cn1cnc2c1c(=O)[nH]c(=O)n2C
Label Value: label 0

Molecule: COc1ccc(CCN(C)CCCC(C#N)(c2ccc(OC)c(OC)c2)C(C)C)cc1OC (centres undefined)
Label Value: label 0

Molecule: CC(COc1ccccc1)N(CCCl)Cc1ccccc1 (centres undefined)
Label Value: label 0

Molecule: NCCCCCC(=O)O
Label Value: label 0

Molecule: NC12CC3CC(CC(C3)C1)C2
Label Value: label 0

Molecule: CN(C)c1nc(N(C)C)nc(N(C)C)n1
Label Value: label 0

Molecule: CN1CCN(C2=Nc3cc(Cl)ccc3Nc3ccccc32)CC1
Label Value: label 0

Molecule: NCCS(=O)(=O)O
Label Value: label 0

Molecule: CCOC(=O)C(C)(C)Oc1ccc(Cl)cc1
Label Value: label 0

Molecule: Nc1nc2c(ncn2COC(CO)CO)c(=O)[nH]1
Label Value: label 0

Molecule: Clc1ccc2nsnc2c1NC1=NCCN1
Label Value: label 0

Molecule: Cn1ccc2cc3c(cc21)CCN3C(=O)Nc1cccnc1
Label Value: label 0

Molecule: Cn1c(=O)c2c(ncn2C)n(C)c1=O
Label Value: label 0

Molecule: O=C(Nc1ccc([N+](=O)[O-])cc1Cl)c1cc(Cl)ccc1O
Label Value: label 1

Molecule: C[C@H]1c2cccc(O)c2C(O)=C2C(=O)[C@]3(O)C(O)=C(C(N)=O)C(=O)[C@@H](N(C)C)[C@@H]3[C@@H](O)[C@@H]21
Label Value: label 0

Molecule: CN1C2CCC1CC(OC(=O)C(CO)c1ccccc1)C2 (centres undefined)
Label Value: label 0

Molecule: CS(=O)(=O)Nc1ccc([N+](=O)[O-])cc1Oc1ccccc1
Label Value: label 0

Molecule: CC(C(=O)O)c1cccc(C(=O)c2ccccc2)c1 (centres undefined)
Label Value: label 0

Molecule: O=c1c(O)c(-c2ccc(O)c(O)c2)oc2cc(O)cc(O)c12
Label Value: label 0

Molecule: Cn1c(=O)c2[nH]cnc2n(C)c1=O
Label Value: label 0

Molecule: NC(=O)OCC(COC(N)=O)c1ccccc1
Label Value: label 0

Molecule: COc1ccc2[nH]cc(CCNC(C)=O)c2c1
Label Value: label 0

Molecule: Cc1ccc(C(=O)Nc2ccc(S(=O)(=O)O)c3cc(S(=O)(=O)O)cc(S(=O)(=O)O)c23)cc1NC(=O)c1cccc(NC(=O)Nc2cccc(C(=O)Nc3cc(C(=O)Nc4ccc(S(=O)(=O)O)c5cc(S(=O)(=O)O)cc(S(=O)(=O)O)c45)ccc3C)c2)c1
Label Value: label 0

Molecule: CC1COc2c(N3CCN(C)CC3)c(F)cc3c(=O)c(C(=O)O)cn1c23 (centres undefined)
Label Value: label 0

Molecule: Clc1ccccc1C(c1ccccc1)(c1ccccc1)n1ccnc1
Label Value: label 0

Molecule: NCCc1cnc[nH]1
Label Value: label 0

Molecule: COc1cc2c(c(OC)c1OC)-c1ccc(OC)c(=O)cc1[C@@H](NC(C)=O)CC2
Label Value: label 0

Molecule: COc1cc2nc(N(C)CCCNC(=O)C3CCCO3)nc(N)c2cc1OC (centres undefined)
Label Value: label 0

Molecule: CCOC(=O)c1ncn2c1CN(C)C(=O)c1cc(F)ccc1-2
Label Value: label 0

====

test: Quantitative High-Throughput drug screen in 47 multiple myeloma cell lines against the NCATS MIPE library collection: KMS26_JCRB cell viability assay (AID 1918975); settings: KMS26 myeloma cells viability, CellTiter-Glo ATP, 48 h; series mostly up to 45.8 µM; further: nearly all actives have a fitted effect of over 45% in size
Inconclusive results are not listed. Calls of active or inactive are those of the source. Calls follow the shape of the dose curve; as a rule, active = well fitted cell-killing curve with a large enough effect; inconclusive = small, poorly fitted or top-dose-only effect, or effect the other way; inactive = no such curve, though single readings can be large or run the other way.
Possible outcomes: t for active, f for inactive

Input Smiles: CN(C)CCCN1c2ccccc2CCc2ccc(Cl)cc21
Label Value: t

Input Smiles: CN(C)c1nc(N(C)C)nc(N(C)C)n1
Label Value: f

Input Smiles: CS(=O)(=O)Nc1ccc([N+](=O)[O-])cc1Oc1ccccc1
Label Value: t

Input Smiles: CCCCc1oc2ccccc2c1C(=O)c1cc(I)c(OCCN(CC)CC)c(I)c1
Label Value: t

Input Smiles: CN1CCN(C2=Nc3cc(Cl)ccc3Nc3ccccc32)CC1
Label Value: f

Input Smiles: CC(=O)OCC(CCn1cnc2cnc(N)nc21)COC(C)=O
Label Value: f

====

experiment: qHTS for differential inhibitors of proliferation of Plasmodium falciparum line D10 (AID 1877); settings: series mostly up to 28.7 µM;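 further: parasites grown with compound for 72 h before DNA staining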
Records with an inconclusive call do not appear. Active and inactive are the calls of the source. Calls follow the shape of the dose curve; as a rule, active = well fitted curve in the direction sought with a large enough effect; inconclusive = small, poorly fitted or top-dose-only effect, or another doubt; inactive = no such curve, though single readings can be large or run the other way.
Possible outcomes: true (1) (active), false (0) (inactive)

Compound: COc1ccc(C2CNC(=O)C2)cc1OC1CCCC1 (configuration not stated)
Label Value: false (0)

Compound: Cc1cnc(C(=O)NCCc2ccc(S(=O)(=O)NC(=O)NC3CCCCC3)cc2)cn1
Label Value: false (0)

Compound: Cn1c(=O)c2[nH]cnc2n(C)c1=O
Label Value: false (0)

Compound: CN(C)CCOC(c1ccccc1)c1ccccc1
Label Value: false (0)

Compound: O=c1c(-c2ccc(O)cc2)coc2cc(O)cc(O)c12
Label Value: false (0)

Compound: CC12CC3CC(C)(C1)CC(N)(C3)C2
Label Value: false (0)

Compound: NC(=O)OCC(COC(N)=O)c1ccccc1
Label Value: false (0)

Compound: Cc1ccccc1N1C(=O)c2cc(S(N)(=O)=O)c(Cl)cc2NC1C (configuration not stated)
Label Value: false (0)

Compound: CN1CCN(CCCN2c3ccccc3Sc3ccc(Cl)cc32)CC1
Label Value: true (1)

Compound: Cn1cnc2c1c(=O)[nH]c(=O)n2C
Label Value: false (0)

Compound: O=C(c1ccc(F)cc1)C1CCN(CCn2c(=O)[nH]c3ccccc3c2=O)CC1
Label Value: true (1)

Compound: Nc1c2c(nc3ccccc13)CCCC2
Label Value: true (1)
